Test system: 996289-038-R-J1-PDC spheroid viability;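 also: spheroids exposed to compounds for seven days before viability read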
test: Anticancer human tumor 996289-038-R-J1-PDC patient-derived colon adenocarcinoma cell line growth inhibition [PI3K]
test-context: curve of first compound; second compound 1 µM; spheroids with HUVEC and MSC
Examples of compounds with documented IC50 follow.

>  <compound>
CC(Cn1ccc(-c2ccc(C#N)c(Cl)c2)n1)NC(=O)c1cc(C(C)O)[nH]n1 (stereo not drawn) + COc1c(OCCCN2CCOCC2)ccc2c3n(c(=NC(=O)c4cnc(N)nc4)nc12)CCN3

>  <IC50>
< 31.6 nM

$$$$

Value (IC50, 996289-038-R-J1-PDC spheroid viability) for record CC(=O)c1c(C)c2cnc(Nc3ccc(N4CCNCC4)cn3)nc2n(C2CCCC2)c1=O + COc1c(OCCCN2CCOCC2)ccc2c3n(c(=NC(=O)c4cnc(N)nc4)nc12)CCN3 = < 0.316 nM

Value (IC50, 996289-038-R-J1-PDC spheroid viability) for record CC(C)NCC(C(=O)N1CCN(c2ncnc3c2C(C)CC3O)CC1)c1ccc(Cl)cc1 (stereo not drawn) + CC(Nc1ncnc2nc[nH]c12)c1cc2cccc(Cl)c2c(=O)n1-c1ccccc1 = > 10000 nM

All figures here come from PubChem BioAssay AID1963965.
